This listing pairs molecules with measured GI50.
- Test system: KM12
- Experiment: NCI tumour cell line growth inhibition, 48 h
Active and inactive are the calls of the source. Rule as the data show it: active = GI50 up to about 1.1 µM and inactive = higher.

| Molecule | Experimental system | GI50 |
| --- | --- | --- |
| CC/C=C\C/C=C\C/C=C\CCCCCCCC(=O)OC(COC(=O)CCCCCCCCCCCCCCCCC)COC1OC(CO)C(O)C(O)C1O (centres undefined) | KM12 | > 25 µM (inactive) |
| COC(=O)[C@](NC(=O)OCc1ccccc1)([C@@H](C)Sc1ccc(C)cc1)C(F)(F)F | KM12 | 42.7 µM (inactive) |
| COC(=O)Cc1c(C2C(CC(=O)OC)c3ccccc3N2C2OC(CO)C(O)C(O)C2O)[nH]c2ccccc12 (centres undefined) | KM12 | > 100 µM (inactive) |
| CCCCCCCCCCCCCCCCCCNc1nc(=O)n(C2CC(O)C(COP(=O)(O)OCC3OC(n4ccc(N)nc4=O)C(O)C3O)O2)cc1F (centres undefined) | KM12 | > 100 µM (inactive) |
| COc1ccc(N2C(=O)C3c4[nH]c5ccc([N+](=O)[O-])cc5c4C4CCC(C(C)(C)C)CC4C3C2=O)cc1 (centres undefined) | KM12 | 6.5 µM (inactive) |
| Oc1cccc(-c2cn3cc(Cl)ccc3n2)c1 | KM12 | 37.2 µM (inactive) |
| O=C(CCN(C(=O)O)S(=O)(=O)c1ccc(NC(=O)c2ccccc2)cc1)Nc1ccccc1 | KM12 | > 100 µM (inactive) |
| NC1=NC(c2ccc(Cl)cc2)N(c2ccc(S(N)(=O)=O)cc2)C(N)=N1 (centres undefined) | KM12 | > 100 µM (inactive) |
| Cc1cc(C)n2nc3nc(N)c(C#N)c(-c4ccccc4)c3c2n1 | KM12 | > 100 µM (inactive) |

###

- Test system: OVCAR-3
- Experiment: NCI tumour cell line growth inhibition, 48 h
Active and inactive are the calls of the source. Rule as the data show it: active = GI50 up to about 1.1 µM and inactive = higher.
Labels: 1 = active, -1 = inactive

| Compound | Experimental system | Group |
| --- | --- | --- |
| CCOC(=O)c1cc(Sc2ccc(N)c(C(=O)OCC)c2)ccc1N | OVCAR-3 | -1 |
| Cc1cc2cc3c(cc2c(-c2ccc(N)cc2)n1)OCO3 | OVCAR-3 | -1 |
| COc1ccc([C@@]2(O)c3c(ccc(O)c3OC)[C@H]2OC)c(OC)c1 | OVCAR-3 | -1 |
| CC/C(C)=C1\CCC(CN2CCOCC2)C1=O (stereo unspecified) | OVCAR-3 | -1 |
| COc1cc(C)c2c(c1)CN1CN2Cc2cc(OC)cc(C)c21 | OVCAR-3 | -1 |
| C=C(C)C(=O)OC1CC2(C)OC2CC(OC(C)=O)/C(C)=C/C2OC(=O)C(=C)C21 (stereo unspecified) | OVCAR-3 | -1 |
| Cn1c2cccc3nnc4cccc(c4c32)n1C | OVCAR-3 | -1 |
| O=C(O)COc1c(Cl)cc(Cl)c2cccnc12 | OVCAR-3 | -1 |
| O=C(CC1(O)C(=O)Nc2c(Cl)cccc21)c1ccccc1 (stereo unspecified) | OVCAR-3 | -1 |
| O=C(O)CCC(NC(=O)c1ccccc1)C(=O)O (stereo unspecified) | OVCAR-3 | -1 |
| CC(=O)Oc1cc(OC(C)=O)c2cc3c(cc2c1OC(C)=O)C(=O)C1(CCCC1)C3=O | OVCAR-3 | -1 |
| C(=N\c1cnc2ccccc2c1)/c1ccc2ccccc2n1 | OVCAR-3 | -1 |
| O=c1cccc(C2CC(CO)C3CCCCN3C2)[nH]1 (stereo unspecified) | OVCAR-3 | -1 |
| NNC(=O)CSc1nc2ccccc2c(=O)n1N | OVCAR-3 | -1 |
| C/C=C/CC(S(=O)(=O)c1ccccc1)S(=O)(=O)c1ccccc1 | OVCAR-3 | -1 |
| COC(=O)C(CC1=C(O)Nc2ccccc2N1)/C(=N/NC(N)=O)C(=O)Nc1ccccc1C (stereo unspecified) | OVCAR-3 | -1 |
| CC(=O)NC(C)c1ccc(/N=N/N2CCCC2)cc1 (stereo unspecified) | OVCAR-3 | -1 |
| O=c1[nH]c(=O)n(COCc2ccccc2)cc1Nc1ccc(Br)cc1 | OVCAR-3 | -1 |
| O=C(O)c1cc2c(ncc3c(=O)n(-c4ccccc4)[nH]c32)s1 | OVCAR-3 | -1 |
| Cc1cc2c(O)c(c1)CN(CC(=O)O)Cc1cc(C)cc(c1O)CN(CC(=O)O)Cc1cc(C)cc(c1O)CN(CC(=O)O)C2 | OVCAR-3 | -1 |
| COC(=O)C1C2CC3C(OC(=O)C31)C2OC(=O)[C@](OC)(c1ccccc1)C(F)(F)F (stereo partly specified) | OVCAR-3 | -1 |
| [N-]=[N+]=NCC(=O)c1cnc(O)nc1O | OVCAR-3 | -1 |
| CCN(CC)c1ccc(/C=C(\C#N)c2nc(N)nc(N3N=C(C)CC3(C)C)n2)cc1 | OVCAR-3 | -1 |
| O=C1CCC2(c3ccccc3)Nc3ncccc3N12 (stereo unspecified) | OVCAR-3 | -1 |
| COc1ccc(C(OCC2OC(n3ccc(Oc4c(F)c(F)c(F)c(F)c4F)nc3=O)CC2OP(OCCC#N)N(C(C)C)C(C)C)(c2ccccc2)c2ccc(OC)cc2)cc1 (stereo unspecified) | OVCAR-3 | -1 |
| CC(C)(C)C1CCC2c3c([nH]c4ccccc34)C3C(=O)N(c4ccccc4Cl)C(=O)C3C2C1 (stereo unspecified) | OVCAR-3 | -1 |
| C=CCOC(=O)CCCCCCCCCCCCCCCOC(=O)C1=C(CCC[C@@H](C)O[Si](C)(C)C(C)(C)C)NC(=O)N2[C@H](CC3(CC/C=C\[C@H](CC)O[Si](C(C)C)(C(C)C)C(C)C)OCCO3)CC[C@H]12 | OVCAR-3 | -1 |
| Cc1cc(C2CC(O)C(CO)O2)c(F)cc1F (stereo unspecified) | OVCAR-3 | -1 |
| Nc1c(C(=O)c2ccccc2)[nH]c(NCc2ccccc2)c1C(=S)Nc1ccccc1 | OVCAR-3 | -1 |
| CN(C)CC1CCC/C1=N/OC(=O)c1ccccc1 (stereo unspecified) | OVCAR-3 | -1 |
| CC(=O)Nc1ncc(Sc2ccccc2C(=O)O)s1 | OVCAR-3 | -1 |
| Clc1ccc(/N=c2\oc3ccccc3cc2-c2nc3ccccc3[nH]2)c(Cl)c1 | OVCAR-3 | -1 |
| CN/N=C(/c1nc2ccc([N+](=O)[O-])cc2nc1O)C(O)c1ccc(C(O)/C(=N\NC)c2nc3ccc([N+](=O)[O-])cc3nc2O)cc1 (stereo unspecified) | OVCAR-3 | -1 |
| CN(/N=N/c1[nH]cnc1C(N)=O)C1CCCCC1 | OVCAR-3 | -1 |
| Cc1nc2c(=O)n(C)c(=O)nc-2n(-c2ccc(Cl)cc2)c1C | OVCAR-3 | -1 |
| C=C[C@@H](OCOCC[Si](C)(C)C)[C@@H](CC)OC(CCCOC(=O)C(C)(C)C)OC (stereo partly specified) | OVCAR-3 | -1 |
| CCCC1C(=O)C(CC)Cc2c(OC)ccc(OC)c21 (stereo unspecified) | OVCAR-3 | -1 |
| COC(=O)C([C@H]1CC[C@H](OCc2ccccc2)[C@@]1(O)COCc1ccccc1)C(C)(O)CCc1ccccc1 (stereo partly specified) | OVCAR-3 | -1 |
| OCCOc1ccc(-c2cc(-c3ccccn3)nc(-c3ccccn3)c2)cc1 | OVCAR-3 | 1 |
| Nc1nc(NNc2ccc(Cl)c(Cl)c2)cc(=O)[nH]1 | OVCAR-3 | -1 |
| COc1cccc(/C=C2\CCC(C)(CN(C)C)C2=O)c1 (stereo unspecified) | OVCAR-3 | -1 |

###

- Test system: COLO 205
- Experiment: NCI tumour cell line growth inhibition, 48 h
Active and inactive are the calls of the source. No stated cut-off is given here; in the data, active = GI50 up to about 1.1 µM and inactive = higher.
Labels: active, inactive

| Molecule | Group |
| --- | --- |
| Cc1cc2c(cc1C)[n+]([O-])c(C(F)(F)F)c(C(=O)c1ccccc1)[n+]2[O-] | inactive |
| C#CCNC(=O)NCCCCC(NC(C)=O)C(=O)NCc1ccccc1 (stereo unspecified) | inactive |
| C=C[C@@H](OCOCC[Si](C)(C)C)[C@@H](CC)OC(CCCOC(=O)C(C)(C)C)OC (stereo partly specified) | inactive |
| O=C(N/N=C(\C1=Nc2ccc(Cl)cc2NC1O)C(O)/C=C/c1ccccc1)c1ccncc1 (stereo unspecified) | inactive |
| N#CCc1cccc(CC#N)c1Br | inactive |
| ClCCN(CC#CCCCC#CCN(CCCl)CCCl)CCCl | inactive |
| COc1cc(-c2nc(SC)nc3c2CCc2ccccc2-3)cc(OC)c1OC | inactive |
| N#CSCc1cccc(Nc2cc(=O)[nH]c(=O)[nH]2)c1 | inactive |
| CCOc1ccccc1NC(=O)CC1Sc2ccccc2NC1=O (stereo unspecified) | inactive |
| CC(C)NCCCNc1c2ccccc2nc2cccc([N+](=O)[O-])c12 | active |
| Cc1nnc2n1N=C(c1cc(F)c(Cl)cc1Cl)/C(=C/c1ccc(Cl)cc1)S2 | inactive |

Entry source: ChEMBL document CHEMBL1201862
